Assay: tubulin staining increase by stabilizing compounds – imaging, high-content imaging, primary screen (AID 2205);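 note: anti alpha tubulin signal scored within the nucleus-defined area of each cell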
Details: HeLa tubulin immunostaining HCS, 24 h, at 10 µM; active compounds read high, share of cells brighter than vehicle mean+2SD
Out of some 200,000 compounds screened, about 1,600 (0.8%) were called active. Many of the other results were omitted from the sample, so actives are more common in it than they were.
Please go through the items and note down their % tubulin-high responders.

Ask | Looking for the measured % tubulin-high responders of `Cc1ccc(S(=O)(=O)N(C)C)cc1NC(=O)c1ccccc1Br` , can you help?
Reply | 1.77% (inactive)

Ask | Check `C/C(CCC(=O)OC[C@H]1O[C@H](C#Cc2ccccc2)C=C[C@@H]1Oc1ccc(C)cc1)=N\OC[C@@H](O)[C@H]1O[C@@H]2OC(C)(C)O[C@@H]2[C@H]1O` too.
Reply | 2.74% (inactive)

Ask | Check `Cc1ccc(Nc2nnc(SCc3ccccc3)s2)cc1` too.
Reply | 1.84% (inactive)

Ask | Check `COc1cccc2cc(S(=O)(=O)c3ccc(C)cc3)/c(=N/NS(=O)(=O)c3ccc(C)cc3)oc12` too.
Reply | 3.76% (inactive)

Ask | Check `COc1ccccc1CNC(=O)c1cc(=O)c2ccccc2o1` too.
Reply | 1.71% (inactive)

Ask | Check `Cc1ccc(Nc2ccccc2N)cc1` too.
Reply | 25.1% (active)

Ask | Check `CC(C)(O)C#Cc1ncc(C(F)(F)F)cc1Cl` too.
Reply | 3.98% (inactive)

Ask | Check `O=C(NNC(=S)NC(=O)c1cn(-c2ccccc2)nc1-c1ccccc1)c1ccncc1` too.
Reply | 5.93% (inactive)

Ask | Check `Cc1csc(NC(=O)Nc2ccccc2[N+](=O)[O-])n1` too.
Reply | 1.89% (inactive)

Ask | Check `CCc1ccccc1NC(=S)N(CCN1CCCCCC1)Cc1ccco1` too.
Reply | 4.39% (inactive)

Ask | Check `O=C(NC(=S)Nc1ccc(S(=O)(=O)N2CCOCC2)cc1)c1ccccc1[N+](=O)[O-]` too.
Reply | 3.32% (inactive)

Ask | Check `CC(=O)Nc1ccc(Nc2c3ccccc3nc3ccccc23)cc1` too.
Reply | 12.5% (inactive)

Ask | Check CCOc1ccc(C2c3[nH]c4ccccc4c3CCN2Cc2cn(CC)nc2C)cc1 (configuration not stated) too.
Reply | 2.78% (inactive)

Ask | Check `O=c1oc2ccccc2cc1-c1cn(-c2ccccc2)c(=S)[nH]1` too.
Reply | 12.5% (active)

Ask | Check `Nc1ncc(-c2cc3ccccc3oc2=O)s1` too.
Reply | 5.77% (inactive)

Ask | Check `O=[N+]([O-])c1cccc(Nc2c3ccccc3nc3ccccc23)c1` too.
Reply | 22% (active)

Ask | Check `O=[N+]([O-])c1ccc(Sc2n[nH]c(-c3ccco3)n2)nc1` too.
Reply | 2.25% (inactive)

Ask | Check `Cn1cccc1/C=N/NC(=O)c1ccc(OC(F)(F)C(F)F)cc1` too.
Reply | 6.72% (inactive)

Ask | Check `C=CCn1c(CC(=O)Nc2cccc(OC)c2)nnc1SCC(=O)NC1CCCCC1` too.
Reply | 3.27% (inactive)

Ask | Check `COc1cccc(-n2c(SCC(=O)NC3CCCCC3)nc3n[nH]c(C)c3c2=N)c1` too.
Reply | 18.4% (active)

Ask | Check `Cc1nn(-c2ccccc2)c(-n2cccc2)c1C(=O)O` too.
Reply | 2.89% (inactive)

Ask | Check `COc1cc2c(cc1OC)CN(C(=O)c1cc(=O)c3ccccc3o1)CC2` too.
Reply | 42.7% (active)
